Listed compounds paired with reported MIC
Tested on: Streptococcus pneumoniae GYR 1171

Please review the entries below; each comes with its answer.
compound	MIC
CC[C@H]1OC(=O)[C@@](C)(F)C(=O)[C@H](C)[C@@H](O[C@@H]2O[C@H](C)C[C@H](N(C)C)[C@H]2O)[C@](C)(OC/C=C/c2cnc3ccc([N+](=O)[O-])cc3c2)C[C@@H](C)C(=O)[C@H](C)[C@H]2NC(=O)O[C@@]21C	≤ 4 ng/mL
CC[C@H]1OC(=O)C(C)(F)C(=O)[C@H](C)[C@@H](O[C@@H]2O[C@H](C)C[C@H](N(C)C)[C@H]2O)[C@](C)(OCC#Cc2ccc(-c3cccs3)s2)C[C@@H](C)C(=O)[C@H](C)[C@H]2NC(=O)O[C@@]21C (stereo partly drawn)	≤ 4 ng/mL

stdin: Can you share its MIC? I mean this compound: `CC[C@H]1OC(=O)[C@@](C)(F)C(=O)[C@H](C)[C@@H](O[C@@H]2O[C@H](C)C[C@H](N(C)C)[C@H]2O)[C@](C)(OC/C=C/c2cnc3ccc(C(N)=O)cc3c2)C[C@@H](C)C(=O)[C@H](C)[C@H]2NC(=O)O[C@@]21C`
stdout: ≤ 4 ng/mL

---

System: Streptococcus pneumoniae GYR 1171 | Read-out: MIC

Please review the entries below; each comes with its answer.
molecule	MIC
CC[C@H]1OC(=O)[C@@](C)(F)C(=O)[C@H](C)[C@@H](O[C@@H]2O[C@H](C)C[C@H](N(C)C)[C@H]2O)[C@](C)(OC/C=C/c2cnc3ccc(CS(N)(=O)=O)cc3c2)C[C@@H](C)C(=O)[C@H](C)[C@H]2NC(=O)O[C@@]21C [Example 14]	≤ 4 ng/mL
CC[C@H]1OC(=O)[C@@](C)(F)C(=O)[C@H](C)[C@@H](O[C@@H]2O[C@H](C)C[C@H](N(C)C)[C@H]2O)[C@](C)(OC/C=C/c2ccccc2)C[C@@H](C)C(=O)[C@H](C)[C@H]2NC(=O)O[C@@]21C [Example 7]	≤ 4 ng/mL

stdin: Can you share its MIC? I mean this molecule: CC[C@H]1OC(=O)C(C)(F)C(=O)[C@H](C)[C@@H](O[C@@H]2O[C@H](C)C[C@H](N(C)C)[C@H]2O)[C@](C)(OCC#CC(=O)c2ccc(Cl)nc2)C[C@@H](C)C(=O)[C@H](C)[C@H]2NC(=O)O[C@@]21C (stereo partly drawn) [Example 25]
stdout: ≤ 4 ng/mL

---

System: Streptococcus pyogenes 930
test_summary: In vitro agar dilution MIC, organism code MM
Type: cell-based
condition_context: Table 1B, unit assumed
observation_type: MIC

Please review the entries below; each comes with its answer.
compound	MIC
C=CCO[C@]1(C)C[C@@H](C)C(=O)[C@H](C)[C@H]2NC(=O)O[C@]2(C)[C@@H](CC)OC(=O)[C@@](C)(F)C(=O)[C@H](C)[C@H]1O[C@@H]1O[C@H](C)C[C@H](N(C)C)[C@H]1O	> 100 µg/mL
CC[C@H]1OC(=O)C(C)(F)C(=O)[C@H](C)[C@@H](O[C@@H]2O[C@H](C)C[C@H](N(C)C)[C@H]2O)[C@](C)(OC)C[C@@H](C)C2=NCCN3C(=O)O[C@@]1(C)[C@H]3[C@H]2C (stereo partly drawn)	> 100 µg/mL

Next compound, MIC to be filled in.
stdin: Can you share its MIC? I mean this compound: CC[C@H]1OC(=O)C(C)(Br)C(=O)[C@H](C)[C@@H](O[C@@H]2O[C@H](C)C[C@H](N(C)C)[C@H]2O)[C@](C)(OC)C[C@@H](C)C2=NCCN3C(=O)O[C@@]1(C)[C@H]3[C@H]2C (stereo partly drawn)
stdout: > 100 µg/mL

---

Tested on: Streptococcus pneumoniae 5979
test_summary: In vitro agar dilution MIC, organism code ZZ
Format: cell-based
condition_context: Table 1B, unit assumed
observation_type: MIC

Please review the entries below; each comes with its answer.
molecule	measurement
CC[C@H]1OC(=O)C(C)(F)C(=O)[C@H](C)[C@@H](O[C@@H]2O[C@H](C)C[C@H](N(C)C)[C@H]2O)[C@](C)(OCC#CC(=O)c2ccccc2)C[C@@H](C)C(=O)[C@H](C)[C@H]2NC(=O)O[C@@]21C (stereo partly shown) [Example 23]	> 128 mg/L
CC[C@H]1OC(=O)C(C)(Cl)C(=O)[C@H](C)[C@@H](O[C@@H]2O[C@H](C)C[C@H](N(C)C)[C@H]2O)[C@](C)(OC)C[C@@H](C)C2=NCCN3C(=O)O[C@@]1(C)[C@H]3[C@H]2C (stereo partly shown) [Example 2]	> 128 mg/L

stdin: Can you share its MIC? I mean this molecule: CC[C@H]1OC(=O)C(C)(F)C(=O)[C@H](C)[C@@H](O[C@@H]2O[C@H](C)C[C@H](N(C)C)[C@H]2O)[C@](C)(OCC#CC(=O)c2cccs2)C[C@@H](C)C(=O)[C@H](C)[C@H]2NC(=O)O[C@@]21C (stereo partly shown) [Example 24]
stdout: > 64 mg/L

stdin: // same read-out, input: C=CCO[C@]1(C)C[C@@H](C)C(=O)[C@H](C)[C@H]2NC(=O)O[C@]2(C)[C@@H](CC)OC(=O)[C@@](C)(F)C(=O)[C@H](C)[C@H]1O[C@@H]1O[C@H](C)C[C@H](N(C)C)[C@H]1O [Example 4]
stdout: > 128 mg/L

Origin of measurements: patent US6124269A
